# Tested on: SF-268 CNS
# test_details: NCI tumour cell line growth inhibition, 48 h
TGI values for the compounds below.

Example entries and their recorded answers appear below.
CCOC(=O)c1c(N2CCOCC2)[nH]c(=O)c(C(c2cccs2)c2c(O)c(C(=O)OCC)c(N3CCOCC3)[nH]c2=O)c1O | > 100 µM
CCOP(=O)(OCC)C1(O)CC(n2cc(C)c(=O)[nH]c2=O)OC1CO (stereo not drawn) | > 100 µM
CCC1C(=O)OCc2c1cc1n(c2=O)C(CC)c2c-1nc1ccccc1c2Cl (stereo not drawn) | > 100 µM

Q: Endpoint output: TGI of `CNC(=S)N/N=C(\C)c1nc2ncccc2[nH]1` . Value?
A: > 100 µM

Q: Endpoint output: TGI of O=C1NC2CCCCC2N=C1/C(C(=O)c1ccccc1)=C(\O)c1ccccc1 (stereo not drawn) . Value?
A: > 100 µM

Q: Endpoint output: TGI of `CC(=O)CC(C)(C)NC(=O)[C@@]1(O)CC[C@H]2[C@@H]3CCC4=CC(=O)CC[C@@H]4[C@H]3CC[C@@]21C` . Value?
A: > 100 µM

Q: Endpoint output: TGI of `COCCOCOC(C)(C)[C@H](CCOC(C)=O)O[Si](c1ccccc1)(c1ccccc1)C(C)(C)C` . Value?
A: > 100 µM

Q: Endpoint output: TGI of `C=CCC1(CC)C(=O)NC(=O)NC1=O` . Value?
A: > 100 µM

Q: Endpoint output: TGI of `Cc1ccc(S(=O)(=O)c2ccc([N+](=O)[O-])o2)cc1` . Value?
A: 46.6 µM

---

TGI values for the molecules below.
# Tested on: UO-31 renal
# test_details: NCI tumour cell line growth inhibition, 48 h
Provide the reading as a plain figure in µM.

Nc1ncccc1-c1nc2ccc(-c3ccccc3)nc2n1-c1ccc(C2(N)CCC2)cc1 | 2.03
Cc1cc(C)c2c(=N)c3ccccc3n(CCCCCCO)c2n1 | 6.01
N.N.N.N.N.O=S(=O)([O-])C(F)(F)F.O=S(=O)([O-])C(F)(F)F.[Os+8] | 30.7

Q: Endpoint output: TGI of `CN(C)Cc1cc(C(=O)/C=C/c2cccc(Cl)c2)cc(CN(C)C)c1O` . Value?
A: 19.5

Q: Endpoint output: TGI of CCN1CCCC(Nc2cc(C)nc(/N=C(/N)Nc3ccc(Cl)c(Cl)c3)n2)C1 (stereo unspecified) . Value?
A: 2.18

Q: Endpoint output: TGI of `OCc1ccc(N2CCCC2)cc1Cl` . Value?
A: 50

Q: Endpoint output: TGI of `CCCCc1ccc(-n2sc3ncccc3c2=O)cc1` . Value?
A: 34.7

Q: Endpoint output: TGI of `O=C(Nc1cnc(C(F)(F)F)cn1)c1cc(Cl)ccc1O` . Value?
A: 1.16

---

# Tested on: K-562 leukemia
# test_details: NCI tumour cell line growth inhibition, 48 h
TGI values for the molecules below.

Cc1ccc(N=C2SC(c3ccc(C)cc3)(c3ccc(C)cc3)c3ccccc32)cc1 | > 100 µM

Q: Endpoint output: TGI of `N#CC(C#N)=C(N)/C(C#N)=C/c1ccc2[nH]ccc2c1` . Value?
A: > 100 µM

Q: Endpoint output: TGI of CC(=O)Nc1ccc(C(=O)NN2C(=O)C(Cl)C2c2ccc(O)cc2)cc1 (stereo unspecified) . Value?
A: > 100 µM

Q: Endpoint output: TGI of `Cc1nn(C)c2nc3ccc(Cl)cc3c(-c3ccccc3)c12` . Value?
A: > 100 µM

Q: Endpoint output: TGI of `CCOC(=O)/C(C#N)=C(/NNc1ccccc1)c1ccncc1C(=O)O` . Value?
A: > 100 µM

Q: Endpoint output: TGI of `COc1ccc2c(c1)/C(=C\c1c[nH]c3ccc(OC)cc13)C(=O)N2` . Value?
A: 15.5 µM

Q: Endpoint output: TGI of `CCCCc1c2c(nc3c1CCc1cc4cc5c(nc4nc1-3)-c1nc3c(c(CCCC)c1CC5)CCC/C3=C\c1ccccc1)/C(=C/c1ccccc1)CCC2` . Value?
A: > 100 µM

Source listed as PubChem BioAssay (NCI).
